# System: EC882 E. coli imp
# PROCEDURE_SUMMARY: broth dilution MIC, E. coli EC882
# Type: cell-based
# TEST_CONTEXT: Escherichia coli
QUANTITY_MEASURED: MIC (µg/mL)

MOLECULE	UNIT_INFO	BOUND_TYPE	RESULT_VALUE
CC[C@H]1OC(=O)[C@H](C)C(=O)C[C@@H](O[C@@H]2OC(C)CC(N(C)C)C2O)[C@@](C)(OC)C[C@@H](C)CN(C(C)=O)[C@H](C)[C@H]2N(CCCCn3cc(-c4ccccn4)nn3)C(=O)O[C@]12C (some centres unmarked)	µg/mL	>	32
CC[C@H]1OC(=O)[C@H](C)C(=O)C[C@@H](O[C@@H]2OC(C)CC(N(C)C)C2O)[C@](C)(OC)C[C@@H](C)CN[C@H](C)[C@H]2N(CCCCn3cc(-c4cccnn4)nn3)C(=O)O[C@]12C (some centres unmarked)	µg/mL	=	1

----------
# Tested on: BS1723 B. subtilis BS168 WT wild type
# PROCEDURE_SUMMARY: broth dilution MIC, B. subtilis BS1723
# Type: cell-based
# TEST_CONTEXT: Bacillus subtilis, BS1723 B. subtilis BS168 WT wild type; read-out: MIC
# Text: We have collected MIC data for a total of 50 novel macrolides that this platform has produced against over 21 unique strains of B. subtilis, E. coli, S. aureus, S. pneumoniae, and H. influenzae, including several multidrug-resistant strains, with a special focus on macrolide resistant mechanisms (vide supra). Azithromycin was included as a control macrolide. CLSI standard procedures for broth dilution MIC determination were used. […] These genotypes can be constitutive or inducible. […]
We begin with a simple list: items and their reported MIC.
QUANTITY_MEASURED: MIC

MOLECULE	TARGET_SYSTEM	QUANTITY_MEASURED	RESULT_VALUE
CC[C@H]1OC(=O)[C@H](C)C(=O)C[C@@H](O[C@@H]2OC(C)CC(N(C)C)C2O)[C@@](C)(OC)C[C@@H](C)CN(C(C)=O)[C@H](C)[C@H]2N(CCCCn3cc(-c4cccc(N)c4)nn3)C(=O)O[C@]12C (stereo partly shown) [FSM-30512]	BS1723 B. subtilis BS168 WT wild type	MIC	> 32 µg/mL
CC[C@H]1OC(=O)[C@H](C)C(=O)C[C@@H](O[C@@H]2OC(C)CC(N(C)C)C2O)[C@](C)(OC)C[C@@H](C)CN(C(C)=O)[C@H](C)[C@H]2N(CCCCn3cc(-c4nccs4)nn3)C(=O)O[C@]12C (stereo partly shown) [FSM-10790]	BS1723 B. subtilis BS168 WT wild type	MIC	> 32 µg/mL
CC[C@H]1OC(=O)[C@H](C)C(=O)[C@H](C)[C@@H](O[C@@H]2OC(C)CC(N(C)C)C2O)[C@](C)(OC)C[C@@H](C)CN[C@H](C)[C@H]2N(CCCCn3cc(-c4ccccn4)nn3)C(=O)O[C@]12C (stereo partly shown) [FSM-20706]	BS1723 B. subtilis BS168 WT wild type	MIC	1 µg/mL
CC[C@H]1OC(=O)[C@H](C)C(=O)C[C@@H](O[C@@H]2OC(C)CC(N(C)C)C2O)[C@@](C)(OC)C[C@@H](C)CN[C@H](C)[C@H]2N(CCCCn3cc(-c4ccccn4)nn3)C(=O)O[C@]12C (stereo partly shown) [FSM-30517]	BS1723 B. subtilis BS168 WT wild type	MIC	> 32 µg/mL
